ASSAY ENDPOINT: melting point

melting point for CSc1ccc(C(=O)CCl)cc1NC(C)=O is 98 to 102 °C

melting point for Cc1nnnn1-c1cc(N)ccc1C(=O)O is 203 to 205 °C

melting point for CNC(=O)c1cc(Oc2ccccc2N)ccn1 is 115 to 117 °C

melting point for Brc1nnc2ccccn12 is 109 to 111 °C

melting point for CCN(CC)S(=O)(=O)c1ccc(Cl)c(C(=O)O)c1 is 121 to 125 °C

Let's switch to this compound now.
melting point for O=C1CN(CCOc2ccc(Br)cc2)CCN1 is 111 to 113 °C

* * *

Listing of entries alongside the reported melting point.

Sample records with melting point:
melting point for OCc1c(Cl)nc2sccn12 is 174 to 176 °C

melting point for O=C(O)CCNC(=O)c1ccsc1 is 235 to 237 °C

melting point for CC(C)OC(=S)Nc1ccc(C#N)c(Cl)c1 is 156 to 158 °C

melting point for Nc1nnc(Cc2ccsc2)o1 is 151 to 153 °C

melting point for COCCn1ncc2ccc(N)cc21 is 86 to 88 °C

melting point for NC(=O)CC(NC(=O)c1ccccc1Cl)C(=O)O (stereo unspecified) is 190 to 192 °C

Next:
melting point for COc1ccc(NS(=O)(=O)c2cc(N)ccc2OC)cc1 is 133 to 135 °C

melting point for O=C(O)Cc1ccc([N+](=O)[O-])cc1Cl is 157 to 159 °C

melting point for Cc1c(NS(=O)(=O)c2cc(C(=O)O)cc(Cl)c2Cl)c(=O)n(-c2ccccc2)n1C is 155 to 157 °C

melting point for COc1ccccc1NC(=O)CC1Nc2ccccc2NC1=O (stereo unspecified) is 172 to 174 °C

melting point for Cc1ccc(C(N)c2cccc(S(C)(=O)=O)c2)cc1 (stereo unspecified) is 73 to 75 °C

melting point for O=C(O)c1cc2c(s1)CCOC2 is 148 to 150 °C

melting point for Cc1cc(C)c(C(=O)CCl)c(C)c1C is 61 to 63 °C

melting point for CN(C1CCCCC1)S(=O)(=O)c1cccc(C(=O)O)c1 is 145 to 147 °C

melting point for CCn1nc(N)cc1C(F)(F)F is 54 to 56 °C

melting point for O=C(O)c1cccc(OCc2ccc(Cl)cc2)c1 is 171 to 173 °C

melting point for OC(c1ccncc1)c1ccc(F)cc1 (stereo unspecified) is 136 to 138 °C

melting point for Cc1cccc(Oc2ccc(N)cn2)c1C is 68 to 70 °C

melting point for CCS(=O)(=O)N1CCCC(C(=O)O)C1 (stereo unspecified) is 59 to 61 °C

melting point for NNC(=O)Nc1ccc(S(N)(=O)=O)cc1 is 216 to 218 °C

* * *

ASSAY ENDPOINT: melting point

Sample records with melting point:
melting point for Cc1c(C(=O)O)cnn1C(C)C is 142 to 144 °C

melting point for COc1ccc(C(CNC(=O)OCC(F)(F)F)N2CCCC2)cc1 (stereo not drawn) is 55 to 57 °C

melting point for Cc1ccc(-c2ccncc2)cc1N is 202 to 204 °C

melting point for OCc1coc(-c2ccccc2)n1 is 79 to 81 °C

Let's switch to this molecule now.
melting point for O=C(O)Cn1[nH]c(=O)c2ccccc2c1=O is 272 to 274 °C
